assay: Assay 4: liver S9 half-life stability assay; type: in vitro ADME; details: liver S9 fraction, pH 7.4; human liver S9, 1 μM test compound, NADPH
Measured metric: half-life at 1 μM

Smiles data	Recorded result
O=C1CCCc2c1sc(Nc1ccc(I)cc1F)c2C(=O)NOCCO	50 to 100 min
CC(=O)c1sc(Nc2ccc(I)cc2F)c(C(=O)NOCCO)c1C	≤ 50 min
